Source: patent US4701448A

Test system: rat
Test: Acute toxicity, rat
Type: in vivo
Conditions: per os (oral administration)
Where a name gives a salt, the structure may show the parent alone.
Property: LD50; scope: individual compounds

compound	target.entity	LD50
CCC(C)C(=O)OC1CCC=C2C=CC(C)C(CCC(CC(O)CC(=O)O)OP(=O)(O)O)C21 (centres unmarked) [CB3A, reference compound]	rat	> 2000 mg/kg
CCC(C)C(=O)OC1CC(C)C=C2C=CC(C)C(CCC(CC(O)CC(=O)O)OP(=O)(O)O)C21 (centres unmarked) [CK3A-Al salt, Aluminum salt of CK3A]	rat	> 2000 mg/kg
CCC(C)C(=O)OC1CC(C)C=C2C=CC(C)C(CCC(CC(O)CC(=O)O)OP(=O)(O)O)C21 (centres unmarked) [CK3A-3Na salt, Trisodium salt of CK3A]	rat	> 2000 mg/kg
CCC(C)C(=O)OC1CCC=C2C=CC(C)C(CCC(CC(O)CC(=O)O)OP(=O)(O)O)C21 (centres unmarked) [CB3A-Al salt, Aluminum salt of CB3A]	rat	> 2000 mg/kg
CCC(C)C(=O)OC1CCC=C2C=CC(C)C(CCC(CC(O)CC(=O)O)OP(=O)(O)O)C21 (centres unmarked) [CB3A-3Na salt, Trisodium salt of CB3A]	rat	> 2000 mg/kg
CCC(C)C(=O)OC1CCC=C2C=CC(C)C(CCC(CC(O)CC(=O)O)OP(=O)(O)O)C21 (centres unmarked) [CB3A-1.5Ca salt, Sesquicalcium salt of CB3A]	rat	> 2000 mg/kg
CCC(C)C(=O)OC1CC(C)C=C2C=CC(C)C(CCC(CC(O)CC(=O)O)OP(=O)(O)O)C21 (centres unmarked) [CK3A-1.5Ca salt, Sesquicalcium salt of CK3A]	rat	> 2000 mg/kg
CCC(C)C(=O)OC1CC(C)C=C2C=CC(C)C(CCC(CC(O)CC(=O)O)OP(=O)(O)O)C21 (centres unmarked) [CK3A, reference compound]	rat	> 2000 mg/kg

###

Experiment: Acidity (pKa) of CB3A
Format: physicochemical
Details: carboxylic acid group in CB3A molecule; read-out: pKa3
result.type: pKa

> print(dat)
                                   molecule  measured
1  CCC(C)C(=O)OC1CCC=C2C=CC(C)C(CCC(CC(O)CC(=O)O)OP(=O)(O)O)C21 (stereo not shown) [CB3A, reference compound]       7.1

###

Assay: Water solubility, hygroscopic property and stability (statements in words)
Type: physicochemical
Where a name gives a salt, the structure may show the parent alone.
result.type: stability

compound	measured
CCC(C)C(=O)OC1CCC=C2C=CC(C)C(CCC(CC(O)CC(=O)O)OP(=O)(O)O)C21 (centres unmarked) [CB3A-3K salt, Tripotassium salt of CB3A]	excellent
CCC(C)C(=O)OC1CC(C)C=C2C=CC(C)C(CCC(CC(O)CC(=O)O)OP(=O)(O)O)C21 (centres unmarked) [CK3A-Al salt, Aluminum salt of CK3A]	particularly excellent
CCC(C)C(=O)OC1CCC=C2C=CC(C)C(CCC(CC(O)CC(=O)O)OP(=O)(O)O)C21 (centres unmarked) [CB3A-1.5Ca salt, Sesquicalcium salt of CB3A]	particularly excellent
CCC(C)C(=O)OC1CCC=C2C=CC(C)C(CCC(CC(O)CC(=O)O)OP(=O)(O)O)C21 (centres unmarked) [CB3A-1.5Ba salt, Sesquibarium salt of CB3A]	particularly excellent
CCC(C)C(=O)OC1CC(C)C=C2C=CC(C)C(CCC(CC(O)CC(=O)OC)OP(=O)(O)O)C21 (centres unmarked) [CK3A methyl ester-2K salt, Dipotassium salt of CK3A methyl ester]	excellent
CCC(C)C(=O)OC1CCC=C2C=CC(C)C(CCC(CC(O)CC(=O)O)OP(=O)(O)O)C21 (centres unmarked) [CB3A-3Na salt, Trisodium salt of CB3A]	excellent
CCC(C)C(=O)OC1CCC=C2C=CC(C)C(CCC(CC(O)CC(=O)O)OP(=O)(O)O)C21 (centres unmarked) [CB3A-1K salt, Monopotassium salt of CB3A]	excellent
CCC(C)C(=O)OC1CC(C)C=C2C=CC(C)C(CCC(CC(O)CC(=O)OC)OP(=O)(O)O)C21 (centres unmarked) [CK3A methyl ester-Ca salt, Calcium salt of CK3A methyl ester]	particularly excellent
CCC(C)C(=O)OC1CC(C)C=C2C=CC(C)C(CCC(CC(O)CC(=O)O)OP(=O)(O)O)C21 (centres unmarked) [CK3A-3K salt, Tripotassium salt of CK3A]	excellent
CCC(C)C(=O)OC1CC(C)C=C2C=CC(C)C(CCC(CC(O)CC(=O)O)OP(=O)(O)O)C21 (centres unmarked) [CK3A-1.5Ba salt, Sesquibarium salt of CK3A]	particularly excellent
CCC(C)C(=O)OC1CCC=C2C=CC(C)C(CCC(CC(O)CC(=O)O)OP(=O)(O)O)C21 (centres unmarked) [CB3A-2K salt, Dipotassium salt of CB3A]	excellent
CCC(C)C(=O)OC1CCC=C2C=CC(C)C(CCC(CC(O)CC(=O)OC)OP(=O)(O)O)C21 (centres unmarked) [CB3A methyl ester-2K salt, Dipotassium salt of CB3A methyl ester]	excellent
CCC(C)C(=O)OC1CCC=C2C=CC(C)C(CCC(CC(O)CC(=O)O)OP(=O)(O)O)C21 (centres unmarked) [CB3A-Al salt, Aluminum salt of CB3A]	particularly excellent
